Would you mind telling me the reported Activity of each entry?
Test system: MCF7
Assay: Effect on SOD level in human MCF7 cells assessed per mg protein at 5 ug/ml after 24 hrs (reference value: 27.61+/- 3.72 U/mg of protein)
Type: functional
Answers are plain numbers, in U/mg protein.

> print(dat)
                                        mol  observable  test.value
1  Cc1nc(-n2ncc3c(S[C@@H]4O[C@H](CO)[C@@H](O)[C@H]4O)ncnc32)c2c3c(sc2n1)CCc1ccccc1-3    Activity        80.2
2  Cc1nc(-n2ncc3c(=S)[nH]cnc32)c2c3c(sc2n1)CCc1ccccc1-3    Activity        85.4
3  Cc1nc(-n2ncc3c(=O)[nH]cnc32)c2c3c(sc2n1)CCc1ccccc1-3    Activity         126

Please supply Activity for each of the following items, keeping them in order.
1. CCOCCSc1ncnc2c1cnn2-c1nc(C)nc2sc3c(c12)-c1ccccc1CC3
2. COCCSc1ncnc2c1cnn2-c1nc(C)nc2sc3c(c12)-c1ccccc1CC3
3. CCSc1ncnc2c1cnn2-c1nc(C)nc2sc3c(c12)-c1ccccc1CC3
4. Cc1nc(-n2ncc3c(Cl)ncnc32)c2c3c(sc2n1)CCc1ccccc1-3

115
136
150
90.6
